- experimental_target: Nicotinic acetylcholine receptor alpha6/alpha3/beta4 (Rattus norvegicus, UniProt P04757+P12392+P43143)
- Sequence (P04757 whole entry): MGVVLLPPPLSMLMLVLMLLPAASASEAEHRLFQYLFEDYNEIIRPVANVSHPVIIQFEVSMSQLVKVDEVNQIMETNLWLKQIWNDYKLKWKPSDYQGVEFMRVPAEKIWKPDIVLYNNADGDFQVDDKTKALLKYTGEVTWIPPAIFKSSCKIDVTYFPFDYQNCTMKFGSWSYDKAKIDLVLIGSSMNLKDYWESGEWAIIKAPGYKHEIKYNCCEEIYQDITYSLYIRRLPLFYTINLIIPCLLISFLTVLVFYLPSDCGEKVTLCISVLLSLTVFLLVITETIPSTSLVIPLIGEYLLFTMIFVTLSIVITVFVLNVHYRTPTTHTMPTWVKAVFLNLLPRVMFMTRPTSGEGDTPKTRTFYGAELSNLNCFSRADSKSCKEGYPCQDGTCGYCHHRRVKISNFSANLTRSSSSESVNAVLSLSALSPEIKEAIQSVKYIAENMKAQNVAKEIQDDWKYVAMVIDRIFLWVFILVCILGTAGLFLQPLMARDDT
- Sequence (P12392 whole entry): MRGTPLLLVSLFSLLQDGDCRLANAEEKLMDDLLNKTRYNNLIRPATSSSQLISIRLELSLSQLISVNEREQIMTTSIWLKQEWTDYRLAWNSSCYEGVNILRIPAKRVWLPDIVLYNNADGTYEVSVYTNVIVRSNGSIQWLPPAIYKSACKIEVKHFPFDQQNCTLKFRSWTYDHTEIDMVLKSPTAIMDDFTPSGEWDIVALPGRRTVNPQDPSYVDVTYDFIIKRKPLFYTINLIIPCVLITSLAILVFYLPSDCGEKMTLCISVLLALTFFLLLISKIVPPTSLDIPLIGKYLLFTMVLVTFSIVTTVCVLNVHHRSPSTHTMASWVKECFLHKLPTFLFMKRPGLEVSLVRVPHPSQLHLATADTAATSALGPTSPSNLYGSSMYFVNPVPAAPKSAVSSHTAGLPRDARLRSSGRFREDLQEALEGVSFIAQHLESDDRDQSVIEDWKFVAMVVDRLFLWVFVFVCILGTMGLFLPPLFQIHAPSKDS
- Sequence (P43143 whole entry): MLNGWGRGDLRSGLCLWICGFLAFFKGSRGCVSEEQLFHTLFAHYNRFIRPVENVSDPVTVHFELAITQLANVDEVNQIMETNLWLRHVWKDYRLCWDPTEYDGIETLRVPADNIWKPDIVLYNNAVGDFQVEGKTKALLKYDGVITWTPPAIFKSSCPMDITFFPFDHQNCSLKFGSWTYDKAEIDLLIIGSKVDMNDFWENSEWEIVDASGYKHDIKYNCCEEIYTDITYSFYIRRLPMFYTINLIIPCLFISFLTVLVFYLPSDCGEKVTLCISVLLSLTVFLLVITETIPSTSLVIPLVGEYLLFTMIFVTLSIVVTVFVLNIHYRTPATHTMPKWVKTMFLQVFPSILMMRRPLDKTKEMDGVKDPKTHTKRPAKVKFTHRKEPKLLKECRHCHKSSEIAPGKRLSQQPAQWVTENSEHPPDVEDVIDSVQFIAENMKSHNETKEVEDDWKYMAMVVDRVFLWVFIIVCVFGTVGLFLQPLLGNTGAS
- protocol_text: Inhibition of rat alpha6/alpha3beta4 nAChR expressed in Stage V-VI Xenopus laevis Oocytes assessed as inhibition of acetylcholine-induced current in presence of acetylcholine by electrophysiological recording
- Type: cell-based, Oocyte
Numbered stars: 1 amine (or outer) side, 2 acyl side, 3 side chain; on linkers, the order of the positions; unused ones are H or OH. Bridge positions count the residues as written; N and C are the ends. Square brackets hold non-standard residues; d marks the D form. Side chains are listed from the residue outwards. Peptide text beside a SMILES is read from it. ξ: configuration not given here. ξPro(4ξ-NH2) = O=C(C1CC(N[*:3])CN1[*:1])[*:2]; ξpGlu = O=C1CCC(C(=O)O)N1
result_type: pIC50
Just so you know, pIC50 here is -log10 of the concentration in molar units; reply with that number alone.

>  <compound>
CC(C)[C@H](NC(=O)[C@H](Cc1cnc[nH]1)NC(=O)[C@H](CCCCN)NC(=O)[C@H](CS)NC(=O)[C@@H]1CCCN1C(=O)[C@@H]1CCCN1C(=O)[C@H](CC(N)=O)NC(=O)[C@H](C)NC(=O)[C@H](CS)NC(=O)[C@H](CS)NC(=O)C1CCC(=O)N1)C(=O)N[C@@H](CC(N)=O)C(=O)N[C@@H](CS)C(=O)N[C@@H](CCCNC(=N)N)C(N)=O (stereo partly specified) ([ξpGlu]CCANPPCKHVNCR-NH2)

>  <readout_number>
7.09

$$$$
>  <compound>
CC(C)[C@H](NC(=O)[C@H](CS)NC(=O)[C@H](C)NC(=O)[C@@H]1CCCN1C(=O)[C@H](CC(N)=O)NC(=O)[C@H](Cc1c[nH]c2ccccc12)NC(=O)[C@H](CS)NC(=O)[C@H](CS)NC(=O)CNC(=O)C1CC(NC(=O)[C@H](CO)NC(=O)C2CCC(=O)N2)CN1)C(=O)N[C@@H](CCCCN)C(=O)N[C@@H](CC(N)=O)C(=O)N[C@@H](CCCNC(=N)N)C(=O)N[C@@H](CS)C(N)=O (stereo partly specified) (H-[ξPro(4ξ-NH2)]([Ser-ξpGlu])GCCWNPACVKNRC-NH2)

>  <readout_number>
7.03

$$$$

Endpoint output: pIC50 of CC(C)[C@H](NC(=O)[C@@H]1CCCN1C(=O)[C@H](CC(N)=O)NC(=O)[C@H](C)NC(=O)[C@H](CS)NC(=O)[C@H](CS)NC(=O)[C@@H](N)CC(=O)O)C(=O)N[C@@H](CS)C(=O)N[C@@H](CC(N)=O)C(=O)NCC(=O)N[C@@H](CCCCN)C(=O)N[C@@H](Cc1cnc[nH]1)C(=O)N[C@@H](CS)C(N)=O (H-DCCANPVCNGKHC-NH2) . Value? 6.51

And what about the compound CC(C)[C@H](NC(=O)[C@@H]1CCCN1C(=O)[C@H](CC(N)=O)NC(=O)[C@H](C)NC(=O)[C@H](CS)NC(=O)[C@H](CS)NC(=O)CN)C(=O)N[C@@H](CS)C(=O)N[C@@H](CC(N)=O)C(=O)NCC(=O)N[C@@H](C)C(=O)N[C@@H](Cc1cnc[nH]1)C(=O)N[C@@H](CS)C(N)=O (H-GCCANPVCNGAHC-NH2) ? 7.14

And what about the compound CC(C)[C@H](NC(=O)[C@@H]1CCCN1C(=O)[C@H](CC(N)=O)NC(=O)[C@H](C)NC(=O)[C@H](CS)NC(=O)[C@H](CS)NC(=O)[C@@H](N)CCCNC(=N)N)C(=O)N[C@@H](CS)C(=O)N[C@@H](CC(N)=O)C(=O)NCC(=O)N[C@@H](CCCCN)C(=O)N[C@@H](Cc1cnc[nH]1)C(=O)N[C@@H](CS)C(N)=O (H-RCCANPVCNGKHC-NH2) ? 7.72

And what about the compound CC(C)[C@@H]1NC(=O)[C@@H]2CCCN2C(=O)[C@H](CC(N)=O)NC(=O)[C@H](C)NC(=O)[C@@H]2CSSC[C@@H](C(=O)N[C@@H](CCC(N)=O)C(=O)O)NC(=O)[C@H](Cc3cnc[nH]3)NC(=O)[C@H](CCCCN)NC(=O)CNC(=O)[C@H](CC(N)=O)NC(=O)[C@H](CSSC[C@H](NC(=O)[C@@H](N)CC(=O)O)C(=O)N2)NC1=O (H-DCCANPVCNGKHCQ-OH; disulfide 2-8, 3-13) ? 5.48

----------
Reported TIME values for a set of compounds
- experimental_target: Nicotinic acetylcholine receptor alpha6/alpha3/beta4 (Rattus norvegicus) (UniProt P04757+P12392+P43143)
- protocol_text: Inhibition of rat alpha6/alpha3beta4 nAChR expressed in Stage V-VI Xenopus laevis Oocytes assessed as inhibition of acetylcholine-induced current by measuring recovery time at 10 uM preincubated with compound for 5 mins followed by washout in presence of acetylcholine by electrophysiological recording
- Type: cell-based
- run_parameters: Oocyte
Numbered stars: 1 amine (or outer) side, 2 acyl side, 3 side chain; on linkers, the order of the positions; unused ones are H or OH. Square brackets hold non-standard residues; d marks the D form. Side chains are listed from the residue outwards. Peptide text beside a SMILES is read from it. ξ: configuration not given here. ξPro(4ξ-NH2) = O=C(C1CC(N[*:3])CN1[*:1])[*:2]; ξpGlu = O=C1CCC(C(=O)O)N1
Kindly provide the numeric value in h only, without the unit symbol.

Endpoint output: TIME of CC(C)[C@H](NC(=O)[C@@H]1CCCN1C(=O)[C@H](CC(N)=O)NC(=O)[C@H](C)NC(=O)[C@H](CS)NC(=O)[C@H](CS)NC(=O)[C@@H](N)CCCNC(=N)N)C(=O)N[C@@H](CS)C(=O)N[C@@H](CC(N)=O)C(=O)NCC(=O)N[C@@H](CCCCN)C(=O)N[C@@H](Cc1cnc[nH]1)C(=O)N[C@@H](CS)C(N)=O (H-RCCANPVCNGKHC-NH2) . Value? 0.333

And what about the compound CC(C)[C@H](NC(=O)[C@H](Cc1cnc[nH]1)NC(=O)[C@H](CCCCN)NC(=O)[C@H](CS)NC(=O)[C@@H]1CCCN1C(=O)[C@@H]1CCCN1C(=O)[C@H](CC(N)=O)NC(=O)[C@H](C)NC(=O)[C@H](CS)NC(=O)[C@H](CS)NC(=O)C1CCC(=O)N1)C(=O)N[C@@H](CC(N)=O)C(=O)N[C@@H](CS)C(=O)N[C@@H](CCCNC(=N)N)C(N)=O (some centres undefined) ([ξpGlu]CCANPPCKHVNCR-NH2) ? 0.15

And what about the compound CC(C)[C@H](NC(=O)[C@H](CS)NC(=O)[C@H](C)NC(=O)[C@@H]1CCCN1C(=O)[C@H](CC(N)=O)NC(=O)[C@H](Cc1c[nH]c2ccccc12)NC(=O)[C@H](CS)NC(=O)[C@H](CS)NC(=O)CNC(=O)C1CC(NC(=O)[C@H](CO)NC(=O)C2CCC(=O)N2)CN1)C(=O)N[C@@H](CCCCN)C(=O)N[C@@H](CC(N)=O)C(=O)N[C@@H](CCCNC(=N)N)C(=O)N[C@@H](CS)C(N)=O (some centres undefined) (H-[ξPro(4ξ-NH2)]([Ser-ξpGlu])GCCWNPACVKNRC-NH2) ? 0.05

And what about the compound CC(C)[C@H](NC(=O)[C@@H]1CCCN1C(=O)[C@H](CC(N)=O)NC(=O)[C@H](C)NC(=O)[C@H](CS)NC(=O)[C@H](CS)NC(=O)CN)C(=O)N[C@@H](CS)C(=O)N[C@@H](CC(N)=O)C(=O)NCC(=O)N[C@@H](C)C(=O)N[C@@H](Cc1cnc[nH]1)C(=O)N[C@@H](CS)C(N)=O (H-GCCANPVCNGAHC-NH2) ? 0.217
